- Experimental target: GST-Bcl-2 (Homo sapiens)
- Sequence (P10415 whole entry): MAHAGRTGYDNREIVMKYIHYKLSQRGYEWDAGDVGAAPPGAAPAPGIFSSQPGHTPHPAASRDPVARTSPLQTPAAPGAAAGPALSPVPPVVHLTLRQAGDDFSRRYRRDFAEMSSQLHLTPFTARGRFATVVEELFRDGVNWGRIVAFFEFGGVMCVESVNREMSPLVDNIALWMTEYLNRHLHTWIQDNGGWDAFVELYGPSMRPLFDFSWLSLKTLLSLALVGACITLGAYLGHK
- Protocol: TR-FRET binding assay, GST-Bcl-2 with F-Bak peptide probe
- Protocol conditions: TR-FRET Binding Affinity, GST-Bcl-2, F-Bak peptide probe
Please provide measured pKi for the entries that follow.
Answers are plain numbers, as −log10 of the molar value.

The following compounds have reported results that may help.
>>> value_observed("CC1(C)CCC(CN2CCN(c3ccc(C(=O)NS(=O)(=O)c4ccc(NCCCN5CCCC5)c([N+](=O)[O-])c4)c(Oc4cccc5[nH]ccc45)c3)CC2)=C(c2cccc(C(F)(F)F)c2)C1")
8.21
>>> value_observed("CC1(C)CCC(CN2CCN(c3ccc(C(=O)NS(=O)(=O)c4cnc(NCC5CCOCC5)c(Br)c4)c(Oc4ccc5[nH]ccc5c4)c3)CC2)=C(c2ccc(Cl)cc2)C1")
8.22
>>> value_observed("O=C(NS(=O)(=O)c1ccc(NCCCN2CCCC2)c([N+](=O)[O-])c1)c1ccc(N2CCN(CC3=C(c4ccc(Cl)cc4)CCCCC3)CC2)cc1Oc1cccc2[nH]ccc12")
9.17

Provide pKi for all items below, preserving their order.
1. C#Cc1cc(S(=O)(=O)NC(=O)c2ccc(N3CCN(CC4=C(c5ccc(Cl)cc5)CC(C)(C)CC4)CC3)cc2Oc2cccc3[nH]ccc23)cnc1OCC1CCOCC1
2. CN1CCC(Nc2ccc(S(=O)(=O)NC(=O)c3ccc(N4CCN(CC5=C(c6ccc(Cl)cc6)CC(C)(C)CC5)CC4)cc3Oc3ccc4[nH]ccc4c3)cc2S(=O)(=O)C(F)(F)Cl)CC1
3. CN(C)CCCOc1ccc(S(=O)(=O)NC(=O)c2ccc(N3CCN(Cc4ccccc4-c4ccc(Cl)cc4)CC3)cc2Oc2ccccc2)cc1[N+](=O)[O-]
4. CN1CCC(Nc2ccc(S(=O)(=O)NC(=O)c3ccc(N4CCN(CC5=C(c6ccc(Cl)cc6)CCCCC5)CC4)cc3Oc3ccc4[nH]ccc4c3)cc2[N+](=O)[O-])CC1
5. CC1(C)CCC(CN2CCN(c3ccc(C(=O)NS(=O)(=O)c4ccc(NCCCN5CCCC5)c([N+](=O)[O-])c4)c(Oc4cccc5[nH]ccc45)c3)CC2)=C(c2cccc(F)c2)C1

Output:
1. 8.45
2. 10.70
3. 10.15
4. 9.79
5. 8.52

Hello, I would appreciate it if you could give pKi for each entry below.
1. CC1(C)CCC(CN2CCN(c3ccc(C(=O)NS(=O)(=O)c4cnc(OCCN5CCOCC5)c(C#N)c4)c(Oc4ccc5[nH]ccc5c4)c3)CC2)=C(c2ccc(Cl)cc2)C1
2. CC1(C)CCC(CN2CCN(c3ccc(C(=O)NS(=O)(=O)c4ccc(NCCCN5CCCC5)c([N+](=O)[O-])c4)c(Oc4cccc5[nH]ccc45)c3)CC2)=C(c2ccc(C(F)(F)F)cc2)C1
3. CC1(C)CCC(CN2CCN(c3ccc(C(=O)NS(=O)(=O)c4ccc(NC5CCN(CCO)CC5)c([N+](=O)[O-])c4)c(Oc4cccc5[nH]ccc45)c3)CC2)=C(c2ccc(Cl)cc2)C1
4. CC1(C)CCC(CN2CCN(c3ccc(C(=O)NS(=O)(=O)c4ccc(NCCCN5CCCC5)c([N+](=O)[O-])c4)c(Oc4cccc5[nH]ccc45)c3)CC2)=C(c2ccc(OC(F)(F)F)cc2)C1

Output:
1: 9.73; 2: 8.90; 3: 10.14; 4: 8.92

List the reported pKi of each compound below.
1. CN(C)CCCN(C)c1ccc(S(=O)(=O)NC(=O)c2ccc(N3CCN(Cc4ccccc4-c4ccc(Cl)cc4)CC3)cc2Oc2ccccc2)cc1[N+](=O)[O-]
2. CC1(C)CCC(CN2CCN(c3ccc(C(=O)NS(=O)(=O)c4ccc(S(=O)(=O)N5CCOCC5)cc4)c(Oc4ccc5[nH]ccc5c4)c3)CC2)=C(c2ccc(Cl)cc2)C1
3. CN1CCN(Nc2ccc(S(=O)(=O)NC(=O)c3ccc(N4CCN(CC5=C(c6ccc(Cl)cc6)CCC(O)C5)CC4)cc3Oc3ccc4[nH]ccc4c3)cc2[N+](=O)[O-])CC1 (centres unmarked)
4. CN1CCC(O)(CNc2ccc(S(=O)(=O)NC(=O)c3ccc(N4CCN(CC5=C(c6ccc(Cl)cc6)CC(C)(C)CC5)CC4)cc3Oc3cccc4[nH]ccc34)cc2[N+](=O)[O-])CC1
5. CN(C)CCOc1cccc(-c2ccc(Cl)cc2)c1CN1CCN(c2ccc(C(=O)NS(=O)(=O)c3ccc(NCCCN4CCCC4)c([N+](=O)[O-])c3)c(Oc3ccc4[nH]ccc4c3)c2)CC1

Output:
1. 9.12
2. 8.15
3. 10.77
4. 11.00
5. 10.28
